Assay: UV absorption capability (absorbance maxima, UV-A, UV-B, UV-C absorption) by HPLC
Type: physicochemical
Settings: AUC of HPLC peak at 245 nm per mM
Provide the reported Total UV absorption UV C (245 nm) of each item.

In: Need Total UV absorption UV C (245 nm), item `O=C1NC(c2c[nH]c3ccc(O)cc23)=C/C1=C1\C(=O)Nc2ccccc21`
Out: 8876.8 (mAU · min)/mM

In: Need Total UV absorption UV C (245 nm), item `O=C1N=C(c2c[nH]c3ccc(O)cc23)C=C1c1c[nH]c2ccccc12`
Out: 3142.9 (mAU · min)/mM

In: Need Total UV absorption UV C (245 nm), item `O=C1N=C(c2c[nH]c3ccccc23)C=C1c1c[nH]c2ccccc12`
Out: 3516.1 (mAU · min)/mM

In: Need Total UV absorption UV C (245 nm), item `O=C1NC(c2c[nH]c3ccccc23)=C/C1=C1\C(=O)Nc2ccccc21`
Out: 9251.6 (mAU · min)/mM

###

Experiment: UV absorption capability (absorbance maxima, UV-A, UV-B, UV-C absorption) by HPLC
Type: physicochemical
Settings: AUC of HPLC peak at 305 nm per mM
property.name: Total UV absorption UV B (305 nm)

In: Need Total UV absorption UV B (305 nm), item `O=C1N=C(c2c[nH]c3ccc(O)cc23)C=C1c1c[nH]c2ccccc12`
Out: 4097.7 (mAU · min)/mM

In: Need Total UV absorption UV B (305 nm), item `O=C1N=C(c2c[nH]c3ccccc23)C=C1c1c[nH]c2ccccc12`
Out: 3778.8 (mAU · min)/mM

In: Need Total UV absorption UV B (305 nm), item `O=C1NC(c2c[nH]c3ccccc23)=C/C1=C1\C(=O)Nc2ccccc21`
Out: 0 (mAU · min)/mM

In: Need Total UV absorption UV B (305 nm), item `O=C1NC(c2c[nH]c3ccc(O)cc23)=C/C1=C1\C(=O)Nc2ccccc21`
Out: 1011.6 (mAU · min)/mM

###

Provide the reported Total UV absorption UV A (360 nm) of each item.
Experiment: UV absorption capability (absorbance maxima, UV-A, UV-B, UV-C absorption) by HPLC
Format: physicochemical
Conditions: AUC of HPLC peak at 360 nm per mM

In: Need Total UV absorption UV A (360 nm), item O=C1N=C(c2c[nH]c3ccccc23)C=C1c1c[nH]c2ccccc12 [prodeoxyviolacein]
Out: 0 (mAU · min)/mM

In: Need Total UV absorption UV A (360 nm), item O=C1NC(c2c[nH]c3ccccc23)=C/C1=C1\C(=O)Nc2ccccc21 [deoxyviolacein]
Out: 702.8 (mAU · min)/mM

In: Need Total UV absorption UV A (360 nm), item O=C1N=C(c2c[nH]c3ccc(O)cc23)C=C1c1c[nH]c2ccccc12 [proviolacein]
Out: 0 (mAU · min)/mM

In: Need Total UV absorption UV A (360 nm), item O=C1NC(c2c[nH]c3ccc(O)cc23)=C/C1=C1\C(=O)Nc2ccccc21 [violacein]
Out: 411.4 (mAU · min)/mM

###

Tested on: E. coli DH5a
Assay: Antimicrobial activity of dyed Nylon 6,6 fabric: final OD600 and % inhibition
Type: cell-based
Conditions: E. coli cultured overnight at 30° c. with dyed Nylon 6,6 fabric strip; starting OD600 0.1
Provide the reported Final OD600 of each item.

In: Need Final OD600, item `O=C1NC(c2c[nH]c3ccccc23)=C/C1=C1\C(=O)Nc2ccccc21`
Out: 4.62

In: Need Final OD600, item `O=C1N=C(c2c[nH]c3ccc(O)cc23)C=C1c1c[nH]c2ccccc12`
Out: 4.52

In: Need Final OD600, item `O=C1NC(c2c[nH]c3ccc(O)cc23)=C/C1=C1\C(=O)Nc2ccccc21`
Out: 4.16

In: Need Final OD600, item `O=C1N=C(c2c[nH]c3ccccc23)C=C1c1c[nH]c2ccccc12`
Out: 4.67
